- test.system: TLR5 of the cell-based reporter assays
- method.description: cell-based or functional assay
measurement.label: Signaling EC50 Normalized by CBLB502
Write your answer as a measured quantity: the number, then the unit.

// Signaling EC50 Normalized by CBLB502 lookup, key: CBLB502 mutant MIM5 (ligand) MRGSHHHHHHGMASMTGGQQMGRDLYDDDDKDPMAQVINTNSLSLLTQNNLNKSQSSLSSAIERLSSGLRINSAKDDAAGQAIANRFTSNIKGLTQASRNANDGISIAQTTEGALNEINNNLQRVRELSVQATNGTNSDSDLKSIQDEIQQRLEEIDRVSNQTQFNGVKVLSQDNQMKIQVGANDGETITIDLQKIDVKSLGLDGFNVNSPGISGGGGGILDSMGTLINEDAAAAKKSTANPLASIDSALSKVDAVRSSLGAIAKAFDSAITALGATVTALASAASRIEDADYATEVSNMSKAQILQQAGTSVLAQANQVPQNVLSLLR
54 fold vs CBLB502
